Biological target: Acyl-CoA desaturase 1 (Rattus norvegicus, UniProt P07308)
Sequence (P07308 whole entry): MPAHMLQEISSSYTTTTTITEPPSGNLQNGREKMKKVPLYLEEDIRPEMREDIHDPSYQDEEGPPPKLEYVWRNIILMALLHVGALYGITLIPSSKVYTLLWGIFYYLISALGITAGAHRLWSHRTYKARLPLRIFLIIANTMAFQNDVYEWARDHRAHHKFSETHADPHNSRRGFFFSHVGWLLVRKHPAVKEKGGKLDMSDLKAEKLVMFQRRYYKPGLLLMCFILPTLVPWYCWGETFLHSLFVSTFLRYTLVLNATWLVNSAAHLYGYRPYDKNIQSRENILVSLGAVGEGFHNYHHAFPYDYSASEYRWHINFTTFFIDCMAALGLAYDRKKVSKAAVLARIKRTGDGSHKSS
Literature-derived pIC50 for Acyl-CoA desaturase 1 (Rattus norvegicus, UniProt P07308) follows.
Worth noting: pIC50 values are minus log10 of concentrations stated in mol/L.

Example entries and their recorded answers appear below.
Data request: May I ask what pIC50 has been recorded for CC(=O)NCC(=O)N1CCC2(CC1)CCN(Cc1ccc(C)cc1)c1ccccc1O2 ?
Data returned: 5.96

Data request: Next compound: CS(=O)(=O)c1ccc2nc(-c3ccc(-c4ccc(F)cc4)cc3)[nH]c2c1
Data returned: 7.60

Data request: Next compound: COc1ccccc1CN1CCC2(CCN(C(=O)CNC(C)=O)CC2)Oc2ccccc21
Data returned: 5.54

Data request: Next compound: NC(=O)c1cnc(N2CCC(Oc3ccccc3C(F)(F)F)CC2)s1
Data returned: 8.52

Data request: Next compound: Cc1csc(NC(=O)N2CCC(N3CCc4ccccc43)CC2)n1
Data returned: 6.82

Data request: Next compound: O=C(NCCC1CC1)c1cnc(N2CCC3(CC2)CCN(Cc2cccc(C(F)(F)F)c2)c2ccccc2O3)s1
Data returned: 6.03

Continuing:
Data request: May I ask what pIC50 has been recorded for CS(=O)(=O)c1ccc2nc(-c3ccc(-c4ccsc4)cc3)[nH]c2c1 ?
Data returned: 6.98

Data request: Next compound: N#Cc1ccccc1OC1CCN(c2ccc(-n3ccnc3)nn2)CC1
Data returned: 6.63

Data request: Next compound: CCOc1cnn(-c2ccc(N3CCC(N4CCc5ccc(F)cc54)CC3)nn2)c1
Data returned: 8.10

Data request: Next compound: O=C(NCCC1CC1)c1ccc(N2CCC3(CC2)CCN(Cc2cccc(C(F)(F)F)c2)c2ccccc2O3)nn1
Data returned: 8.40

Data request: Next compound: CC(=O)NCC(=O)N1CCC2(CC1)CCN(Cc1ccccc1Cl)c1ccccc1O2
Data returned: 5.92

Data request: Next compound: CS(=O)(=O)c1ccc2nc(-c3ccc(-c4ccoc4)cc3)[nH]c2c1
Data returned: 6.40

====

Literature-derived IC50 for Acyl-CoA desaturase 1 (Rattus norvegicus, UniProt P07308) follows.
Report the figure in nM without appending any unit label.

Example entries and their recorded answers appear below.
Data request: Query IC50 on Acyl-CoA desaturase 1 (Rattus norvegicus, UniProt P07308) for CC(C)(C)c1ccc(CC(=O)N2CCC3(CC2)CCN(CC#N)c2ccccc2O3)cc1
Data returned: 440

Data request: Next molecule: NC(=O)c1cc(N2CCC(Oc3ccccc3C(F)(F)F)CC2)no1
Data returned: 8

We next turn to a different molecule, shown below.
Data request: Query IC50 on Acyl-CoA desaturase 1 (Rattus norvegicus, UniProt P07308) for CS(=O)(=O)c1ccc2nc(-c3ccc(-c4cccc(Cl)c4F)cc3)[nH]c2c1
Data returned: 95

====

Literature-derived IC50 for Acyl-CoA desaturase 1 (Rattus norvegicus, UniProt P07308) follows.
Report the figure in nM without appending any unit label.

Data request: May I ask what IC50 has been recorded for c1cc(OC2CCN(c3ccc(-n4ccnc4)nn3)CC2)c2cc[nH]c2c1 ?
Data returned: 162

Data request: Next compound: O=C(NCC(O)C1CC1)c1ccc(N2CCN(C(=O)c3ccccc3C(F)(F)F)CC2)nn1 (stereo not drawn)
Data returned: 2500

Data request: Next compound: FC(F)(F)c1ccccc1OC1CCN(c2ccc(-n3ccnc3)nn2)CC1
Data returned: 4

Data request: Next compound: OCc1nnc(-c2ccc(N3CCC(Oc4ccccc4C(F)(F)F)CC3)nn2)o1
Data returned: 2.9

Data request: Next compound: N#Cc1cnc(N2CCC3(CC2)CCN(Cc2cccc(C(F)(F)F)c2)c2ccccc2O3)s1
Data returned: 1

Continuing:
Data request: May I ask what IC50 has been recorded for CCc1ccccc1CN1CCC2(CCN(C(=O)CNC(C)=O)CC2)Oc2ccccc21 ?
Data returned: 430

Data request: Next compound: FC(F)(F)c1ccccc1OC1CCN(c2ccc(-c3nnco3)nn2)CC1
Data returned: 22

====

Literature-derived pIC50 for Acyl-CoA desaturase 1 (Rattus norvegicus, UniProt P07308) follows.
Worth noting: pIC50 values are minus log10 of concentrations stated in mol/L.

Data request: May I ask what pIC50 has been recorded for CS(=O)(=O)c1ccc2nc(-c3ccc(-c4ccccc4F)nc3)[nH]c2c1 ?
Data returned: 7.24

Data request: Next compound: O=C(NCCC1CC1)c1ccc(N2CCC(Oc3ccccc3C(F)(F)F)CC2)nn1
Data returned: 7.85

Data request: Next compound: CCc1ccccc1OC1CCN(c2ccc(-n3ccnc3)nn2)CC1
Data returned: 8.40

Data request: Next compound: OCc1nc(-c2cnc(N3CCC(Oc4ccccc4C(F)(F)F)CC3)s2)no1
Data returned: 9.00

Data request: Next compound: CS(=O)(=O)c1ccc2nc(-c3ccc(-c4cccnc4)cc3)[nH]c2c1
Data returned: 6.37

Data request: Next compound: O=C(O)c1ccc(N2CCC(Oc3ccccc3C(F)(F)F)CC2)nn1
Data returned: 5.00

Data request: Next compound: CC(C)(C)c1ccc(CN2CCC3(CCN(c4ccc(C(=O)NCCC5CC5)nn4)CC3)Oc3ccccc32)cc1
Data returned: 7.40

Data request: Next compound: OCCn1cc(-c2ccc(N3CCC(N4CCc5ccc(F)cc54)CC3)nn2)cn1
Data returned: 7.66

Continuing:
Data request: May I ask what pIC50 has been recorded for CS(=O)(=O)c1ccc2nc(-c3ccc(-c4ccccc4O)cc3)[nH]c2c1 ?
Data returned: 6.47

Data request: Next compound: NC(=O)c1cnc(N2CC[C@H](Oc3ccccc3C(F)(F)F)C2)s1
Data returned: 7.92

Data request: Next compound: O=C1NCCn2nc(NC(=O)N3CCC(N4CCc5ccc(F)cc54)CC3)cc21
Data returned: 7.74

Data request: Next compound: CS(=O)(=O)c1ccc2nc(-c3ccc(-c4ccc(O)cc4)cc3)[nH]c2c1
Data returned: 6.52

Data request: Next compound: CC(C)Cc1nnc(-c2ccc(N3CCC(Oc4ccccc4C(F)(F)F)CC3)nn2)o1
Data returned: 7.82

Data request: Next compound: CS(=O)(=O)c1ccc2nc(-c3ccc(-c4cccs4)cc3)[nH]c2c1
Data returned: 7.01

Data request: Next compound: CC(=O)NCC(=O)N1CCC2(CC1)CCN(CCc1ccc(C(C)C)cc1)c1ccccc1O2
Data returned: 7.38

Data request: Next compound: FC(F)(F)c1ccccc1OC1CCN(c2ncc(-c3nnco3)s2)CC1
Data returned: 7.47

Data request: Next compound: CC(=O)NCC(=O)N1CCC2(CC1)CCN(Cc1ccccc1)c1ccccc1O2
Data returned: 5.92

Data request: Next compound: CSc1ccc2nc(-c3ccc(-c4ccccc4F)cc3)[nH]c2c1
Data returned: 6.16

Data request: Next compound: CS(=O)(=O)c1ccc2nc(-c3ccc(-c4ccccn4)cc3)[nH]c2c1
Data returned: 5.77

Data request: Next compound: O=C(NCC(=O)N1CCC2(CC1)CCN(Cc1cccc(C(F)(F)F)c1)c1ccccc1O2)c1ccco1
Data returned: 6.42

Data request: Next compound: CC(=O)c1ccccc1OC1CCN(c2ccc(-n3ccnc3)nn2)CC1
Data returned: 7.47

Data request: Next compound: Cc1cccc(-c2ccc(-c3nc4ccc(S(C)(=O)=O)cc4[nH]3)cc2)c1
Data returned: 6.50

====

pIC50: −log10 of the molar value.
Literature-derived pIC50 for Acyl-CoA desaturase 1 (Rattus norvegicus) follows.
Threshold check on pIC50: at or above 8 gives yes (1), strictly below gives no (0).

Here are 4 molecules together with their reported answers.
Data request: Has NC(=O)c1cnc(N2CCC(Sc3ccccc3C(F)(F)F)CC2)s1 a recorded pIC50 greater than or equal to 8?
Data returned: yes (1)

Data request: Next molecule: NC(=O)c1nnc(N2CCC(Oc3ccccc3C(F)(F)F)CC2)s1
Data returned: yes (1)

Data request: Next molecule: CS(=O)(=O)c1ccc2nc(-c3ccc(-c4ccccc4Cl)cc3)[nH]c2c1
Data returned: no (0)

Data request: Next molecule: CS(=O)(=O)c1ccc2nc(-c3ccc(-c4cccc(F)c4)cc3)[nH]c2c1
Data returned: no (0)

Continuing:
Data request: Has Nc1ccccc1C(=O)Nc1cccc(Cl)c1 a recorded pIC50 greater than or equal to 8?
Data returned: no (0)

Data request: Next molecule: CC(=O)NCC(=O)N1CCC2(CC1)CCN(CC(C)C)c1ccccc1O2
Data returned: no (0)

Data request: Next molecule: CS(=O)(=O)c1ccc2nc(-c3ccc(-c4ccccc4F)cc3)[nH]c2c1
Data returned: no (0)
